System: hepatitis C replicon
Measurement protocol: hepatitis C replicon EC50
Format: cell-based
Condition description: Hepatitis C virus; Table 3; hepatitis C replicon; read-out: EC50
pEC50: −log10 of the molar value.
Assay endpoint: pEC50

Query smiles	pEC50
Cc1cccc2oc(O[C@@H]3C[C@H]4C(=O)N[C@]5(C(=O)NS(=O)(=O)C6CC6)C[C@H]5/C=C\CCCCC[C@H](NC(=O)OC(C)(C)C)C(=O)N4C3)nc12	7.00 to 8.00
CC(C)Cn1c(O[C@@H]2C[C@H]3C(=O)N[C@]4(C(=O)NS(=O)(=O)N(C)C)C[C@H]4/C=C\CCCCC[C@H](NC(=O)OC(C)(C)C)C(=O)N3C2)nc2ccccc21	> 8.00
CN(C)S(=O)(=O)NC(=O)[C@@]12C[C@H]1/C=C\CCCCC[C@H](NC(=O)OC(C)(C)C)C(=O)N1C[C@H](Oc3nc4ccccc4n3C3CCCC3)C[C@H]1C(=O)N2	> 8.00
O=C(N[C@H]1CCCCC/C=C\[C@@H]2C[C@@]2(C(=O)NS(=O)(=O)C2CC2)NC(=O)[C@@H]2C[C@@H](OC(=O)N3Cc4cccc(F)c4C3)CN2C1=O)O[C@@H]1C[C@@H]2C[C@@H]2C1	> 8.00

QUERY: // query pEC50 value for entry CC1(S(=O)(=O)NC(=O)[C@@]23C[C@H]2/C=C\CCCCC[C@H](Nc2ccc(C(F)(F)F)c(F)c2)C(=O)N2C[C@H](OC(=O)N4Cc5cccc(F)c5C4)C[C@H]2C(=O)N3)CC1
RESULT: < 7.00

Where do the numbers come from? From patent US8048862B2.
